# Tested on: Mycobacterium tuberculosis
# assay_notes: Anti-mycobacterial activity against Mycobacterium tuberculosis H37Rv
# Format: functional
Rule: MIC below 20 µg/mL gives True. Equal to or above 20 µg/mL gives False.

[ask] Decide: MIC of CCO/N=C1/C(=O)N(Cc2cn(CC(=O)N3CCN(c4cc5c(cc4F)c(=O)c(C(=O)O)cn5C4CC4)CC3)nn2)c2ccc(C)cc21 strictly below 20 µg/mL?
[reply] False

[ask] And for CO/N=C1/C(=O)N(Cc2cn(CC(=O)N3CCN(c4cc5c(cc4F)c(=O)c(C(=O)O)cn5C4CC4)CC3)nn2)c2ccc(C)cc21 ?
[reply] False

[ask] And for O=C1C(=O)N(Cc2cn(CC(=O)N3CCN(c4cc5c(cc4F)c(=O)c(C(=O)O)cn5C4CC4)CC3)nn2)c2c(F)cccc21 ?
[reply] True

[ask] And for Cc1ccc2c(c1)C(=O)C(=O)N2Cc1cn(CC(=O)N2CCN(c3cc4c(cc3F)c(=O)c(C(=O)O)cn4C3CC3)CC2)nn1 ?
[reply] True

[ask] And for CO/N=C1/C(=O)N(Cc2cn(CC(=O)N3CCN(c4cc5c(cc4F)c(=O)c(C(=O)O)cn5C4CC4)CC3)nn2)c2c(F)cccc21 ?
[reply] False

[ask] And for O=C1C(=O)N(Cc2cn(CC(=O)N3CCN(c4cc5c(cc4F)c(=O)c(C(=O)O)cn5C4CC4)CC3)nn2)c2ccccc21 ?
[reply] True

[ask] And for CO/N=C1/C(=O)N(Cc2cn(CC(=O)N3CCN(c4cc5c(cc4F)c(=O)c(C(=O)O)cn5C4CC4)CC3)nn2)c2ccc(F)cc21 ?
[reply] True

[ask] And for CO/N=C1/C(=O)N(Cc2cn(CC(=O)N3CCN(c4cc5c(cc4F)c(=O)c(C(=O)O)cn5C4CC4)CC3)nn2)c2ccccc21 ?
[reply] True

[ask] And for CCO/N=C1/C(=O)N(Cc2cn(CC(=O)N3CCN(c4cc5c(cc4F)c(=O)c(C(=O)O)cn5C4CC4)CC3)nn2)c2ccc(F)cc21 ?
[reply] True

[ask] And for O=C(O)c1cn(C2CC2)c2cc(N3CCNCC3)c(F)cc2c1=O ?
[reply] True

[ask] And for NNC(=O)c1ccncc1 ?
[reply] True

[ask] And for CCO/N=C1/C(=O)N(Cc2cn(CC(=O)N3CCN(c4cc5c(cc4F)c(=O)c(C(=O)O)cn5C4CC4)CC3)nn2)c2ccccc21 ?
[reply] False

[ask] And for CCO/N=C1/C(=O)N(Cc2cn(CC(=O)N3CCN(c4cc5c(cc4F)c(=O)c(C(=O)O)cn5C4CC4)CC3)nn2)c2c(F)cccc21 ?
[reply] False

[ask] And for CO[C@H]1/C=C/O[C@@]2(C)Oc3c(C)c(O)c4c(O)c(c(/C=N/N5CCN(C)CC5)c(O)c4c3C2=O)NC(=O)/C(C)=C\C=C\[C@H](C)[C@H](O)[C@@H](C)[C@@H](O)[C@@H](C)[C@H](OC(C)=O)[C@@H]1C ?
[reply] True

[ask] And for O=C1C(=O)N(Cc2cn(CC(=O)N3CCN(c4cc5c(cc4F)c(=O)c(C(=O)O)cn5C4CC4)CC3)nn2)c2ccc(F)cc21 ?
[reply] True
